# Test target: Dipeptidyl peptidase 4 (Homo sapiens)
# Experiment summary: Inhibition of DDP4 at pH 7.4 preincubated for 10 mins

| Molecule smiles | Display unit | IC50 |
| --- | --- | --- |
| C[C@H](NC(=O)[C@@H]1CCCN1C(=O)[C@@H](N)Cc1ccccc1)C(=O)N1CCC[C@H]1B(O)O | nM | 7 |
| CC(C)[C@H](NC(=O)[C@@H]1CCCN1C(=O)[C@@H](N)C1CCCCC1)C(=O)N1CCC[C@H]1B(O)O | nM | 19 |

----------
# Experiment summary: Chemical stability of the compound assessed as half life at physiological pH
# Type: physicochemical
Assay endpoint: half-life

| Molecule smiles | Assay endpoint | Recorded result |
| --- | --- | --- |
| CC(=O)N[C@H](C(=O)N1CCC[C@H]1B(O)O)C(C)C | half-life | 30 min |

----------
# Test target: Dipeptidyl peptidase 4 (Homo sapiens, UniProt P27487)
# Sequence (P27487 whole entry): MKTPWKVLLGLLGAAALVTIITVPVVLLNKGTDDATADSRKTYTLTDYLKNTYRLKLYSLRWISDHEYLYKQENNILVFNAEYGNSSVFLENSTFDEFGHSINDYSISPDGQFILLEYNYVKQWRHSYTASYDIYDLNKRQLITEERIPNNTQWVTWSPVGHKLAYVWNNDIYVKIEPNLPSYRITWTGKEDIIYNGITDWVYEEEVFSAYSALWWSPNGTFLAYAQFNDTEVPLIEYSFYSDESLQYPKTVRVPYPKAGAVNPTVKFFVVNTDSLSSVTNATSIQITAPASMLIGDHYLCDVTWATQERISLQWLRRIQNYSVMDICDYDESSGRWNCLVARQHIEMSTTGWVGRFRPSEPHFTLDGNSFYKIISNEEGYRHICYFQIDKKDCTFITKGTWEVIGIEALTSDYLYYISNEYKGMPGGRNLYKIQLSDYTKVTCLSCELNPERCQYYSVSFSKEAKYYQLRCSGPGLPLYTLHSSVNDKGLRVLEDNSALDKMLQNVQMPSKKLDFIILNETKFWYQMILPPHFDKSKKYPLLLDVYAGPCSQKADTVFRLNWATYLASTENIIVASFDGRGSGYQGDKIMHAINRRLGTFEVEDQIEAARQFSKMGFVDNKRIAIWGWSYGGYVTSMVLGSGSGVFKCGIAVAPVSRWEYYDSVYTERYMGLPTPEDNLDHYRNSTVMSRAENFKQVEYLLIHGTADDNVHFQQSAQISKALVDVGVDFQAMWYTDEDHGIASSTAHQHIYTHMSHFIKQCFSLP
# Experiment summary: Inhibition of DDP4 at pH 7.4 preincubated with alpha-chymotrypsin up to 8 hrs
pIC50: −log10 of the molar value. Starred links: 1 amine or outer side, 2 acyl side, 3 side chain; linkers in the order of their positions; H or OH if unused. Residues, ends and D or L forms follow the SMILES beside them. *: point of attachment. Suc = O=C(CCC(=O)[*:2])[*:1]; boroPro = OB(O)[C@@H]1CCCN1*
Assay endpoint: pIC50

| Compound | Test target | Recorded result |
| --- | --- | --- |
| C[C@H](NC(=O)CCC(=O)O)C(=O)N[C@@H](C)C(=O)N1CCC[C@H]1C(=O)N[C@@H](Cc1ccccc1)C(=O)N[C@@H](C)C(=O)N1CCC[C@H]1B(O)O (Suc-AAPFA-boroPro) | Dipeptidyl peptidase 4 (Homo sapiens, UniProt P27487) | 9.15 |

These entries and their values trace back to ChEMBL document CHEMBL1765065.
